Test system: S. aureus ATCC 25923
Assay: MIC by microdilution, S. aureus ATCC 25923
Assay type: cell-based
Conditions: Staphylococcus aureus, ATCC25923; S. aureus ATCC 25923, sensitive to all antibiotics; read-out: MIC
Recorded MIC by entry
valueKind: MIC (µg/mL)

{"compound": "OCCn1cc([C+](c2cn(CCO)c3ccccc23)c2cn(CCO)c3ccccc23)c2ccccc21.[Cl-]", "reportedValue": 32}
{"compound": "OCCCCCn1cc([C+](c2cn(CCCCCO)c3ccccc23)c2cn(CCCCCO)c3ccccc23)c2ccccc21.[Cl-]", "reportedValue": 2}
{"compound": "OCCCn1cc([C+](c2cn(CCCO)c3ccccc23)c2cn(CCCO)c3ccccc23)c2ccccc21.[Cl-]", "reportedValue": 32}
{"compound": "C[C@H]1COc2c(N3CCN(C)CC3)c(F)cc3c(=O)c(C(=O)O)cn1c23 [Lf, levofloxacin, reference compound]", "reportedValue": 0.25}
{"compound": "OCCCCn1cc([C+](c2cn(CCCCO)c3ccccc23)c2cn(CCCCO)c3ccccc23)c2ccccc21.[Cl-]", "reportedValue": 16}
{"compound": "OCCCCCCn1cc([C+](c2cn(CCCCCCO)c3ccccc23)c2cn(CCCCCCO)c3ccccc23)c2ccccc21.[Cl-]", "reportedValue": 0.5}
